- experiment: Toxic concentration at which 50% of CEM-SS cells were viable (uninfected with virus) as determined by metabolism of MTT
- Format: toxicity, cell-based
- experimental-conditions: human, read-out: TC50 (the source's name)
value-type: CC50 (µM)
Just the number please, in µM, no unit attached.

QUERY: State the recorded CC50 for this entry: "CC(C)(C)NC(=O)c1ccccc1C[C@@H](O)[C@H](Cc1ccccc1)NC(=O)[C@H](CC(N)=O)NC(=O)c1cnc2ccccc2c1"
RESULT: 122

* * *

- experiment: Pharmacokinetic parameter half life determined after intravenous administration of 50 mg/kg to rat
- Format: ADME, organism-based
- Design: dose 50 mg/kg, route intravenous
- experimental-conditions: in vivo
value-type: half-life

CCC1(N(CCO)C(=O)c2ccccc2CCC(O)Cc2ccc(C)cc2C(=O)N(CCO)C(C)(C)c2ccccc2)CCCC1 (stereo unspecified)    1.3 h
CCC1(N(CCO)C(=O)c2ccccc2CCC(O)Cc2ccc(C)cc2C(=O)N(CC(CO)CO)C(C)(C)c2ccccc2)CCCC1 (stereo unspecified)    1 h
CCC1(N(CCO)C(=O)c2ccccc2CCC(O)Cc2ccc(Cl)cc2C(=O)N(CCO)C(C)(C)c2ccccc2)CCCC1 (stereo unspecified)    1.7 h
Cc1ccc(CC(O)CCc2ccccc2C(=O)N(CCO)C(C)(C)c2ccccc2)c(C(=O)N(CCO)C(C)(C)c2ccccc2)c1 (stereo unspecified)    0.5 h
CCC1(N(CCO)C(=O)c2ccccc2CCC(O)Cc2ccc(C)cc2C(=O)N(CCO)C(C)(C)c2ccc(O)cc2)CCCC1 (stereo unspecified)    1.4 h

For the next question, use this molecule.
QUERY: State the recorded half-life for this entry: CCC1(N(CCO)C(=O)c2ccccc2CCC(O)Cc2ccc(C)cc2C(=O)N(CCC(O)CO)C(C)(C)c2ccccc2)CCCC1 (stereo unspecified)
RESULT: 1.3 h

* * *

- System: Rattus norvegicus
- experiment: Fraction of compound bio available orally in rat at dosage 50(mg/kg) by po administration.
- experimental-conditions: in vivo
value-type: bioavailability (%)
Just the number please, in %, no unit attached.

QUERY: Return bioavailability measured with Rattus norvegicus given this compound: CCC1(N(CCO)C(=O)c2ccccc2CCC(O)Cc2ccc(C)cc2C(=O)N(CCO)C(C)(C)c2ccc(OCc3cccnc3)cc2)CCCC1 (stereo unspecified)
RESULT: 5

* * *

- experiment: Pharmacokinetic parameter half life determined after intravenous administration of 25 mg/kg to monkey
- Assay type: ADME, organism-based
- Set-up: dose 25 mg/kg, route intravenous
- experimental-conditions: simiiformes, in vivo
value-type: half-life (h)
Just the number please, in h, no unit attached.

QUERY: State the recorded half-life for this entry: CCC1(N(CCO)C(=O)c2ccccc2CCC(O)Cc2ccc(C)cc2C(=O)N(CCO)C(C)(C)c2ccccc2)CCCC1 (stereo unspecified)
RESULT: 1.08
